Values were extracted from patent US12297235B2.

Test: Solubility in water
Assay type: physicochemical
Conditions: Table 7, PEGylated and Sar/Ala substitution peptides
Square brackets hold non-standard residues; d marks the D form. Peptide text beside a SMILES is read from it. Sar = CNCC(=O)O

COMPOUND	Solubility in water
CC[C@H](C)[C@H](N)C(=O)N[C@@H](C)C(=O)N[C@@H](CC(C)C)C(=O)N[C@H](C(=O)N[C@@H](CC(C)C)C(=O)N[C@@H](CCC(=O)O)C(=O)N1CCC[C@H]1C(=O)N[C@H](C(=O)N(C)CC(=O)N[C@@H](CS)C(=O)N(C)CC(=O)N[C@@H](CCC(=O)O)C(=O)N[C@@H](CCCNC(=N)N)C(=O)N[C@@H](C)C(=O)N[C@@H](C)C(=O)O)[C@@H](C)CC)[C@@H](C)CC [Peptide Q11SarC9Sar] (H-IALILEPI[Sar]C[Sar]ERAA-OH)	Yes
CC[C@H](C)[C@H](N)C(=O)N[C@@H](C)C(=O)N[C@@H](CC(C)C)C(=O)N[C@H](C(=O)N[C@@H](CC(C)C)C(=O)N[C@@H](CCC(=O)O)C(=O)N1CCC[C@H]1C(=O)N[C@H](C(=O)N(C)CC(=O)N[C@@H](CS)C(=O)N[C@@H](CCC(N)=O)C(=O)N[C@@H](CCC(=O)O)C(=O)N(C)CC(=O)N[C@@H](C)C(=O)N[C@@H](C)C(=O)O)[C@@H](C)CC)[C@@H](C)CC [Peptide R13SarC9Sar] (H-IALILEPI[Sar]CQE[Sar]AA-OH)	No
CC[C@H](C)[C@H](N)C(=O)N[C@@H](C)C(=O)N[C@@H](CC(C)C)C(=O)N[C@H](C(=O)N[C@@H](CC(C)C)C(=O)N[C@@H](CCC(=O)O)C(=O)N1CCC[C@H]1C(=O)N[C@H](C(=O)N(C)CC(=O)N[C@@H](CS)C(=O)N[C@@H](CCC(N)=O)C(=O)N[C@@H](CCC(=O)O)C(=O)N[C@@H](CCCNC(=N)N)C(=O)N(C)CC(=O)N[C@@H](C)C(=O)O)[C@@H](C)CC)[C@@H](C)CC [Peptide A14SarC9Sar] (H-IALILEPI[Sar]CQER[Sar]A-OH)	No
CC[C@H](C)[C@H](N)C(=O)N[C@@H](C)C(=O)N[C@@H](CC(C)C)C(=O)N[C@H](C(=O)N[C@@H](CC(C)C)C(=O)N[C@@H](C)C(=O)N1CCC[C@H]1C(=O)N[C@H](C(=O)N(C)CC(=O)N[C@@H](CS)C(=O)N[C@@H](CCC(N)=O)C(=O)N[C@@H](C)C(=O)N[C@@H](CCCNC(=N)N)C(=O)N[C@@H](C)C(=O)N[C@@H](C)C(=O)O)[C@@H](C)CC)[C@@H](C)CC [Peptide E6AE12AC9Sar] (H-IALILAPI[Sar]CQARAA-OH)	No
CC[C@H](C)[C@H](N)C(=O)N[C@@H](C)C(=O)N[C@@H](CC(C)C)C(=O)N[C@H](C(=O)N[C@@H](CC(C)C)C(=O)N(C)CC(=O)N1CCC[C@H]1C(=O)N[C@H](C(=O)N(C)CC(=O)N[C@@H](CS)C(=O)N[C@@H](CCC(N)=O)C(=O)N[C@@H](CCC(=O)O)C(=O)N[C@@H](CCCNC(=N)N)C(=O)N[C@@H](C)C(=O)N[C@@H](C)C(=O)O)[C@@H](C)CC)[C@@H](C)CC [Peptide E6SarC9Sar, IALIL(Sar)PI(Sar)CQERAA] (H-IALIL[Sar]PI[Sar]CQERAA-OH)	Yes
CC[C@H](C)[C@H](N)C(=O)N[C@@H](C)C(=O)N[C@@H](CC(C)C)C(=O)N[C@H](C(=O)N[C@@H](CC(C)C)C(=O)N[C@@H](CCC(=O)O)C(=O)N(C)CC(=O)N[C@H](C(=O)N[C@@H](CS)C(=O)N[C@@H](CS)C(=O)N[C@@H](CCC(N)=O)C(=O)N[C@@H](CCC(=O)O)C(=O)N[C@@H](CCCNC(=N)N)C(=O)N(C)CC(=O)N[C@@H](C)C(=O)O)[C@@H](C)CC)[C@@H](C)CC [Peptide A14SarP7Sar, IALILE(Sar)ICCQER(Sar)A] (H-IALILE[Sar]ICCQER[Sar]A-OH; N-terminus and C-terminus assumed)	Yes
